biological target: Ribosomal protein S6 kinase alpha-1 (Homo sapiens, UniProt Q15418); test: Inhibition of recombinant human RSK1 by radiometric assay in presence of [gamma-33P]-ATP
Sequence (Q15418 whole entry): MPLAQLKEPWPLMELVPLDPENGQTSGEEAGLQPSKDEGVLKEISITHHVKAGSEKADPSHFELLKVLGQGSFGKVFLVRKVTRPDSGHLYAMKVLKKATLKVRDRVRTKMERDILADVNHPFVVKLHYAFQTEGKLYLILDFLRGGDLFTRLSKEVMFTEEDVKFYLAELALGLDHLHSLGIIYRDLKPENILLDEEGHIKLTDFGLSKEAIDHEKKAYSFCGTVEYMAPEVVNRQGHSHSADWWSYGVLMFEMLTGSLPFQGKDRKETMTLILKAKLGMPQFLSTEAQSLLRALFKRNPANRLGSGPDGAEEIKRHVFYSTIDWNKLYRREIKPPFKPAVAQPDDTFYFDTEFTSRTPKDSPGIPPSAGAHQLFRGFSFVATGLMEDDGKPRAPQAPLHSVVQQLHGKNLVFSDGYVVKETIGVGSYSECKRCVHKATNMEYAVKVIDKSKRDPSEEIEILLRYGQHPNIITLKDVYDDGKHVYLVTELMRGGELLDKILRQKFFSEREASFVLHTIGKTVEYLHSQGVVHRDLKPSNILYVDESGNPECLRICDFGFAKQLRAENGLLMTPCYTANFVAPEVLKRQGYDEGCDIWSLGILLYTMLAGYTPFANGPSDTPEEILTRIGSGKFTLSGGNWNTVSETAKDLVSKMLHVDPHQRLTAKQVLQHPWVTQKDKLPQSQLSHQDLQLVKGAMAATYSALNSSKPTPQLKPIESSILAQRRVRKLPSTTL
ENDPOINT: pIC50
Expect pIC50 as a plain number equal to -log10 of the molar concentration.

[ask] Please report the recorded pIC50 for CC(C)n1nc(-c2cc(C3CC3)on2)c2c(N)ncnc21 .
[reply] 6.51

---

target: Ribosomal protein S6 kinase beta-1 (Homo sapiens); assay: Inhibition of recombinant human p70S6K by radiometric assay in presence of [gamma-33P]-ATP
Sequence (P23443 whole entry): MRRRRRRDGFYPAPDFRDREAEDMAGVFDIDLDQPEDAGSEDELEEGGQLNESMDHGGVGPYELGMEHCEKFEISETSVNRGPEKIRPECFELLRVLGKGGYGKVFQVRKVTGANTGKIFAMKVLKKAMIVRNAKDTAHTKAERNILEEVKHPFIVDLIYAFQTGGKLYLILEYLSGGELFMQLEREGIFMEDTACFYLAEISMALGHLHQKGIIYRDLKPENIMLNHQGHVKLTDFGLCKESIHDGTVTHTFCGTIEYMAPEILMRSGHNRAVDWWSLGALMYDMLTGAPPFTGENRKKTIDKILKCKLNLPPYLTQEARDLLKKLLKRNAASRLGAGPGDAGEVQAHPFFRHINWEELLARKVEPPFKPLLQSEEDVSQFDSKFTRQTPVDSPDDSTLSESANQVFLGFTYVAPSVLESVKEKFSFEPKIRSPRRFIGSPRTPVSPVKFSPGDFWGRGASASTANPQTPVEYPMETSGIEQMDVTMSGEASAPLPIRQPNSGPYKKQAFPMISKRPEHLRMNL
ENDPOINT: IC50 (µM)
I only need the number, in µM, no unit after it.

[ask] Please report the recorded IC50 for CC(C)n1nc(-c2cc(C3CC3)on2)c2c(N)ncnc21 .
[reply] 0.023

---

target: Tyrosine-protein kinase Fgr (Homo sapiens, UniProt P09769); assay: Inhibition of recombinant human FGR by radiometric assay in presence of [gamma-33P]-ATP
Sequence (P09769 whole entry): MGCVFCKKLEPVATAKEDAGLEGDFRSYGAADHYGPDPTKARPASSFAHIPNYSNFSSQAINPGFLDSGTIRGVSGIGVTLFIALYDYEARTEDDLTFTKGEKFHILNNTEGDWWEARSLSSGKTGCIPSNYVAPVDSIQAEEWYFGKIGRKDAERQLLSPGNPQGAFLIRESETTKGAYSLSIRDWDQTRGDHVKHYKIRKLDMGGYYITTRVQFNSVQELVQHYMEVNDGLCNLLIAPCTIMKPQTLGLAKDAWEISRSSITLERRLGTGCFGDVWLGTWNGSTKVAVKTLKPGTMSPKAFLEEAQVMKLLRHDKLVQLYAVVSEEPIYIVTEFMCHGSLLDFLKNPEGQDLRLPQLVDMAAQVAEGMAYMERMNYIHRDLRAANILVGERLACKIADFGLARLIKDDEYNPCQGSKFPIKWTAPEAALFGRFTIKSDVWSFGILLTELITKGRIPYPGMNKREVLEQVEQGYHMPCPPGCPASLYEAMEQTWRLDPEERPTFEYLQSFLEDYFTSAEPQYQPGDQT
ENDPOINT: pIC50
Expect pIC50 as a plain number equal to -log10 of the molar concentration.

[ask] Please report the recorded pIC50 for CC(C)n1nc(-c2cc(C3CC3)on2)c2c(N)ncnc21 .
[reply] 7.19

---

biological target: Proto-oncogene tyrosine-protein kinase receptor Ret (Homo sapiens, UniProt P07949, G691S); test: Inhibition of human Ret G691S mutant by radiometric assay in presence of [gamma-33P]-ATP
Sequence (P07949 29-1114 G691S limits assumed): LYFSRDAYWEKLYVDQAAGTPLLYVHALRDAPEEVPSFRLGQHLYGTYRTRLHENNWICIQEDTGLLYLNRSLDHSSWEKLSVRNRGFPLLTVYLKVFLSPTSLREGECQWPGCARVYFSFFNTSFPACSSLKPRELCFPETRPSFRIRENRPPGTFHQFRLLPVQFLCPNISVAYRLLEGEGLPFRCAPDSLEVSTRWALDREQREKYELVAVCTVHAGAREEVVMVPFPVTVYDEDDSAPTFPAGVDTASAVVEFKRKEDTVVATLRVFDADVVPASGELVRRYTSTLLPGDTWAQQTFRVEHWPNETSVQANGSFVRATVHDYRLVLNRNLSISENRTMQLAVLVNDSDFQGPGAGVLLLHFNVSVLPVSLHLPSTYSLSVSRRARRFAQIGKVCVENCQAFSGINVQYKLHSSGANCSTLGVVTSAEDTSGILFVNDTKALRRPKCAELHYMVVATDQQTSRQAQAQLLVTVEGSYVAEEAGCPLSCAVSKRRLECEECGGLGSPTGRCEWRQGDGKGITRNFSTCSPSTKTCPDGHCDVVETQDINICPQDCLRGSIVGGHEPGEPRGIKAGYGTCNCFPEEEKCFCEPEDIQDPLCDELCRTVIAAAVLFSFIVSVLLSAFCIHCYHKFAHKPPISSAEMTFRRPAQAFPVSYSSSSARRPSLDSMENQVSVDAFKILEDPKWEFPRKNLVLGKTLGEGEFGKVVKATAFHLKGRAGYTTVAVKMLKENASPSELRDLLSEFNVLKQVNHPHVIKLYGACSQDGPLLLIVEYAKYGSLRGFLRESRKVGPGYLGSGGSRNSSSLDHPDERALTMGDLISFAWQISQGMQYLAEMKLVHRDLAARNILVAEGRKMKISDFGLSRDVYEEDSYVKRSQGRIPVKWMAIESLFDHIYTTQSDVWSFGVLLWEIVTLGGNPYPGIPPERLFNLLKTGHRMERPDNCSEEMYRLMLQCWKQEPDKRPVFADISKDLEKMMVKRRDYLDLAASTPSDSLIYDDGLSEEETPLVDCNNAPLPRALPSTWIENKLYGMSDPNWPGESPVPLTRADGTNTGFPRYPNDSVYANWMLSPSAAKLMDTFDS
Let's look at some compounds and their measured pIC50.
Expect pIC50 as a plain number equal to -log10 of the molar concentration.

# CHEMICAL_SMILES, pIC50
records = [
    ("CC(C)n1nc(C#Cc2ccccc2)c2c(N)ncnc21", 7.12),
]

Now look at this entry.
[ask] Could you share what pIC50 was measured for CC(C)n1nc(-c2cc(C3CC3)on2)c2c(N)ncnc21 , tested on Proto-oncogene tyrosine-protein kinase receptor Ret (Homo sapiens, UniProt P07949, G691S)?
[reply] 8.00

---

biological target: Proto-oncogene tyrosine-protein kinase receptor Ret (Homo sapiens, UniProt P07949, S891A); assay: Inhibition of human Ret S891A mutant by radiometric assay in presence of [gamma-33P]-ATP
Sequence (P07949 29-1114 S891A limits assumed): as the sequence (P07949 29-1114 G691S limits assumed) above, with S663G, S863A counted along it
ENDPOINT: IC50 (nM)
I only need the number, in nM, no unit after it.

# CHEMICAL_SMILES, TGT, VALUE_REPORTED
rows = [
    ("CC(C)n1nc(-c2cc(C3CC3)on2)c2c(N)ncnc21", "Proto-oncogene tyrosine-protein kinase receptor Ret (Homo sapiens, UniProt P07949, S891A)", 2),
]

[ask] Could you share what IC50 was measured for CC(C)n1nc(C#Cc2ccccc2)c2c(N)ncnc21 , tested on Proto-oncogene tyrosine-protein kinase receptor Ret (Homo sapiens, UniProt P07949, S891A)?
[reply] 54

---

target: Cytochrome P450 2C19 (Homo sapiens)
Sequence (P33261 whole entry): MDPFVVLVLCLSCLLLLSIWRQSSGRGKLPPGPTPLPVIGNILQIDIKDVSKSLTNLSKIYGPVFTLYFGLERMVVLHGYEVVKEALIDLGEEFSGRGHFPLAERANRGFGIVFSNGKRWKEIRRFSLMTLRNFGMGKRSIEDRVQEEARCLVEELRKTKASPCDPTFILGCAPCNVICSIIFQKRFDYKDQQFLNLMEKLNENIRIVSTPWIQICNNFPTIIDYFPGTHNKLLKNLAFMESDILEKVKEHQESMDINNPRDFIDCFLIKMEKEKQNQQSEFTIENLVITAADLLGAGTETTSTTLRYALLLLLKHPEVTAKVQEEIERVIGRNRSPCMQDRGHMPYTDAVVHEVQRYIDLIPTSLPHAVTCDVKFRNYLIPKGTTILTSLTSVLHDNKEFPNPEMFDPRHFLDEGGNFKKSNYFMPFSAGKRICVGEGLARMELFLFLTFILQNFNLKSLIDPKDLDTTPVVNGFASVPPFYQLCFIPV
ENDPOINT: IC50

[ask] Please report the recorded IC50 for CC(C)n1nc(-c2cc(C3CC3)on2)c2c(N)ncnc21 .
[reply] > 30 µM

---

biological target: Proto-oncogene tyrosine-protein kinase receptor Ret (Homo sapiens, UniProt P07949, V804L); assay: Inhibition of human Ret V804L mutant by radiometric assay in presence of [gamma-33P]-ATP
Sequence (P07949 29-1114 V804L limits assumed): as the sequence (P07949 29-1114 G691S limits assumed) above, with S663G, V776L counted along it
ENDPOINT: pIC50
Expect pIC50 as a plain number equal to -log10 of the molar concentration.

# CHEMICAL_SMILES, pIC50
data = [
    ("CC(C)n1nc(C#Cc2ccccc2)c2c(N)ncnc21", 5.50),
]

[ask] Could you share what pIC50 was measured for CC(C)n1nc(-c2cc(C3CC3)on2)c2c(N)ncnc21 , tested on Proto-oncogene tyrosine-protein kinase receptor Ret (Homo sapiens, UniProt P07949, V804L)?
[reply] 7.68
